Tested on: P. aeruginosa ATCC-10145
Assay: MIC against P. aeruginosa ATCC-10145 by the plate diluted method
Assay type: cell-based
Details: Pseudomonas aeruginosa, ATCC10145; P. aeruginosa ATCC-10145; 1×10^6 cells/ml; read-out: MIC
readout-kind: MIC (µg/mL)
Reply with just the number (in µg/mL).

# chem-smiles, target-under-test, unit-label, MIC
measured = [
    ("Nc1nc(/C(=N/OCc2cc(=O)c(O)cn2O)C(=O)N[C@@H]2C(=O)N3C(C(=O)O)=C(CSc4nnnn4CCO)SC[C@H]23)cs1", "P. aeruginosa ATCC-10145", "µg/mL", 0.05),
    ("Cc1nnc(SCC2=C(C(=O)O)N3C(=O)[C@@H](NC(=O)/C(=N\\OCc4cc(=O)c(O)cn4O)c4csc(N)n4)[C@H]3CS2)s1", "P. aeruginosa ATCC-10145", "µg/mL", 0.1),
    ("Nc1nc(/C(=N/OCC(=O)O)C(=O)N[C@@H]2C(=O)N3C(C(=O)[O-])=C(CSc4cc[n+](CC(=O)c5ccc(O)c(O)c5)cc4)OC[C@H]23)cs1", "P. aeruginosa ATCC-10145", "µg/mL", 0.05),
    ("Nc1nc(/C(=N/OCc2cc(=O)c(O)cn2O)C(=O)N[C@@H]2C(=O)N3C(C(=O)O)=C(CSc4nnc(N)s4)SC[C@H]23)cs1", "P. aeruginosa ATCC-10145", "µg/mL", 0.1),
    ("CC(C)(O/N=C(\\C(=O)N[C@@H]1C(=O)N2C(C(=O)[O-])=C(CSc3cc[n+](CC(=O)NNC(=O)c4ccc(O)c(O)c4)cc3)CS[C@H]12)c1csc(N)n1)C(=O)O", "P. aeruginosa ATCC-10145", "µg/mL", 0.05),
]

Give the value of MIC reported for the following: CC(C)(O/N=C(\C(=O)N[C@@H]1C(=O)N2C(C(=O)[O-])=C(CSc3cc[n+](Cc4cc(=O)c(O)c[nH]4)cc3)SC[C@H]12)c1csc(N)n1)C(=O)O
0.1

###

Test system: P. aeruginosa ATCC-10145
Assay: MIC against P. aeruginosa ATCC-10145 by the plate diluted method
Format: cell-based
Conditions: Pseudomonas aeruginosa, ATCC10145; P. aeruginosa ATCC-10145; 1×10^6 cells/ml; read-out: MIC
Reported MIC by item:
Answer with the figure and its unit, nothing else.

Give the value of MIC reported for the following: CC(C)(O/N=C(\C(=O)N[C@@H]1C(=O)N2C(C(=O)[O-])=C(CSc3cc[n+](CC(=O)c4ccc(O)c(O)c4)cc3)CS[C@H]12)c1csc(N)n1)C(=O)O
0.1 µg/mL

Give the value of MIC reported for the following: Nc1nc(/C(=N/OCc2cc(=O)c(O)cn2O)C(=O)N[C@@H]2C(=O)N3C(C(=O)O)=C(CSc4nncs4)SC[C@H]23)cs1
0.05 µg/mL

###

Reported MIC by item:
System: M. moganii IIDkono
Experiment: MIC against M. moganii IIDkono by the plate diluted method
Assay type: cell-based
Conditions: M. moganii IIDkono; 1×10^6 cells/ml; read-out: MIC
Reply with just the number (in mg/L).

Sample records with MIC:
# chem-smiles, experimental-result
records = [
    ("Nc1nc(/C(=N/OCc2cc(=O)c(O)cn2O)C(=O)N[C@@H]2C(=O)N3C(C(=O)O)=C(CSc4nnnn4CCO)SC[C@H]23)cs1", 0.024),
    ("Nc1nc(/C(=N/OCC(=O)O)C(=O)N[C@@H]2C(=O)N3C(C(=O)[O-])=C(CSc4cc[n+](CC(=O)c5ccc(O)c(O)c5)cc4)OC[C@H]23)cs1", 0.024),
]

Turning to the following molecule.
Give the value of MIC reported for the following: Nc1nc(/C(=N/OCc2cc(=O)c(O)cn2O)C(=O)N[C@@H]2C(=O)N3C(C(=O)[O-])=C(CSc4cc[n+](CC(=O)O)cc4)SC[C@H]23)cs1
0.1

###

System: P. aeruginosa ATCC-10145
Test: MIC against P. aeruginosa ATCC-10145 by the plate diluted method
Format: cell-based
Conditions: Pseudomonas aeruginosa, ATCC10145; P. aeruginosa ATCC-10145; 1×10^6 cells/ml; read-out: MIC
readout-kind: MIC (µg/mL)
Reply with just the number (in µg/mL).

Sample records with MIC:
# chem-smiles, MIC [µg/mL]
data = [
    ("Cc1nc(SCC2=C(C(=O)O)N3C(=O)[C@@H](NC(=O)/C(=N\\OCc4cc(=O)c(O)cn4O)c4csc(N)n4)[C@H]3CS2)sc1CC(=O)O", 0.05),
    ("CC(C)(O/N=C(\\C(=O)N[C@@H]1C(=O)N2C(C(=O)[O-])=C(CSc3cc[n+](CC(=O)NNC(=O)c4ccc(O)c(O)c4)cc3)SC[C@H]12)c1csc(N)n1)C(=O)O", 0.1),
    ("Cc1nnc(SCC2=C(C(=O)O)N3C(=O)[C@@H](NC(=O)/C(=N\\OCc4ccc(O)c(O)c4)c4csc(N)n4)[C@H]3CS2)s1", 0.39),
    ("Nc1nc(/C(=N/OCc2cc(=O)c(O)cn2O)C(=O)N[C@@H]2C(=O)N3C(C(=O)O)=C(CSc4snc(O)c4C(=O)O)CS[C@H]23)ns1", 0.1),
    ("Nc1nc(/C(=N/OCc2cc(=O)c(O)cn2O)C(=O)N[C@@H]2C(=O)N3C(C(=O)[O-])=C(CSc4cc[n+](CC(=O)O)cc4)CS[C@H]23)ns1", 0.1),
    ("Nc1nc(/C(=N/OCc2cc(=O)c(O)cn2O)C(=O)N[C@@H]2C(=O)N3C(C(=O)O)=C(CSc4nnnn4CC(=O)O)SC[C@H]23)ns1", 0.05),
    ("Nc1nc(/C(=N/OCc2cc(=O)c(O)cn2O)C(=O)N[C@@H]2C(=O)N3C(C(=O)[O-])=C(CSc4cc[n+](CC(=O)O)cc4)SC[C@H]23)cs1", 0.1),
    ("Cc1nc(SCC2=C(C(=O)O)N3C(=O)[C@@H](NC(=O)/C(=N\\OCc4cc(=O)c(O)cn4O)c4nsc(N)n4)[C@H]3SC2)sc1CC(=O)O", 0.05),
]

Give the value of MIC reported for the following: CO/N=C(\C(=O)N[C@@H]1C(=O)N2C(C(=O)[O-])=C(CSc3cc[n+](CC(=O)c4ccc(O)c(O)c4)cc3)CS[C@H]12)c1csc(N)n1
0.2

Give the value of MIC reported for the following: Nc1nc(/C(=N/OCc2cc(=O)c(O)cn2O)C(=O)N[C@@H]2C(=O)N3C(C(=O)O)=C(CSc4nnnn4CC(=O)O)CS[C@H]23)ns1
0.1

###

System: P. aeruginosa ATCC-10145
Assay: MIC against P. aeruginosa ATCC-10145 by the plate diluted method
Type: cell-based
Conditions: Pseudomonas aeruginosa, ATCC10145; P. aeruginosa ATCC-10145; 1×10^6 cells/ml; read-out: MIC
readout-kind: MIC
Answer with the figure and its unit, nothing else.

# chem-smiles, MIC
records = [
    ("Nc1nc(/C(=N/OCc2cc(=O)c(O)cn2O)C(=O)N[C@@H]2C(=O)N3C(C(=O)O)=C(CSc4snc(O)c4C(=O)O)SC[C@H]23)ns1", "0.1 µg/mL"),
]

Give the value of MIC reported for the following: Nc1nc(/C(=N/OCc2cc(=O)c(O)cn2O)C(=O)N[C@@H]2C(=O)N3C(C(=O)O)=C(CSc4nnnn4CC(=O)O)SC[C@H]23)cs1
0.05 µg/mL

Give the value of MIC reported for the following: Cc1nc(SCC2=C(C(=O)O)N3C(=O)[C@@H](NC(=O)/C(=N\OCc4cc(=O)c(O)cn4O)c4nsc(N)n4)[C@H]3CS2)sc1CC(=O)O
0.1 µg/mL

###

Test system: M. moganii IIDkono
Assay: MIC against M. moganii IIDkono by the plate diluted method
Type: cell-based
Conditions: M. moganii IIDkono; 1×10^6 cells/ml; read-out: MIC
readout-kind: MIC (µg/mL)
Reply with just the number (in µg/mL).

Sample records with MIC:
# molecule, target-under-test, MIC / µg/mL
rows = [
    ("Nc1nc(/C(=N/OCc2cc(=O)c(O)cn2O)C(=O)N[C@@H]2C(=O)N3C(C(=O)O)=C(CSc4nnnn4CC(=O)O)CS[C@H]23)ns1", "M. moganii IIDkono", 0.024),
    ("Cc1nnc(SCC2=C(C(=O)O)N3C(=O)[C@@H](NC(=O)/C(=N\\OC(C(=O)O)c4ccc(O)c(O)c4)c4csc(N)n4)[C@H]3CS2)s1 (stereo partly drawn)", "M. moganii IIDkono", 0.024),
]

Give the value of MIC reported for the following: Cc1nnc(SCC2=C(C(=O)O)N3C(=O)[C@@H](NC(=O)/C(=N\OCc4ccc(O)c(O)c4)c4csc(N)n4)[C@H]3CS2)s1
0.05
